# System: Staphylococcus epidermitis
# Assay Procedure: Bacterial growth inhibition screen in LB media (absorbance 595 nm), percent inhibition
# Condition Description: S. epidermitis; concentration screened 10 uM
Output: class label from % Inhibition. Mapping: low interval (below 5%), middle interval (5% to below 30%), high interval (30% or more)

Chem Smiles: O=C(c1ccccc1)c1ccc2[nH]c(CCCCCCCOC(=O)C(c3ccccc3)c3ccccc3)cc2c1
Category Label: middle interval

Lab log: `C[n+]1cc(C(=O)OCCCCCCn2ccc3cc(OCc4ccccc4)ccc32)cc2ccccc21` — assign % Inhibition category
high interval

Lab log: `c1ccc(C(c2ccccc2)(c2ccccc2)c2ccc3[nH]c(CCCCCCCC[n+]4cccc5ccccc54)cc3c2)cc1` — assign % Inhibition category
middle interval

Lab log: `FC(F)(F)c1ccc2cc(CCC[n+]3ccccc3)[nH]c2c1` — assign % Inhibition category
high interval

Lab log: `O=[N+]([O-])c1ccc2[nH]c(CCC[n+]3cccc4ccccc43)cc2c1` — assign % Inhibition category
middle interval

Lab log: `COc1ccc2c(ccn2CCCCCCCCOC(=O)Cc2ccc([N+](C)(C)C)cc2)c1` — assign % Inhibition category
high interval

Lab log: `COc1ccc2c(ccn2CCCCOC(=O)Cc2ccc([N+](C)(C)C)cc2)c1` — assign % Inhibition category
middle interval

Lab log: `c1ccc(C(c2ccccc2)(c2ccccc2)c2ccc3[nH]c(CCCCC[n+]4cccc5ccccc54)cc3c2)cc1` — assign % Inhibition category
low interval
